Assay: Circular dichroism spectroscopy analysis (CD spectra, variable temperature measurement, refolding)
Type: physicochemical
Conditions: Table 2; Ylib001Naive.I selection; MGSSHHHHHHGSS-[Y#####]-ASGSVD; 0.5 mg/ml in PBS, 221 nm, 20-90° C.
Measured quantity: Tm
The reply should consist of the numeric value with the unit placed after it.

Examples with answers:
• Y00005: C4 binding Y variant from Ylib001Naive.I, SEQ ID NO:5 (LAEAKEAAIAELDSAGVNEVQKSKIEQASSVEEVEFWKEEILAQLP; Engineered C4 binding Y variant) = 60 °C
• Y00004: C4 binding Y variant from Ylib001Naive.I, SEQ ID NO:4 (LAEAKEAANAELDSYGVDADLIKKIERAESVEEVEFWKEEILAHLP; Engineered C4 binding Y variant) = 45 °C
• Y00035: IL-6 binding Y variant from Ylib001Naive.I, SEQ ID NO:50 (LAEAKEAANAELDSYGVQANSIEAIEQGLFVEVVELLKELILAALP; Engineered IL-6 binding Y variant) = 60 °C
• Y00125: insulin binding Y variant, SEQ ID NO:106; differs from Y00032 by N in position 9 (LAEAKEAANAELDSKGVGAYQKSFIELAKSVEHVELLKEAILADLP; Engineered insulin binding Y variant) = 35 °C
• Y00076: IL-6 binding Y variant from Ylib001Naive.I, SEQ ID NO:61 (LAEAKEAALAELDSKGIEEKSISEIEAGLWVEVVELLKESILAVLP; Engineered IL-6 binding Y variant) = 47 °C

Reported Tm, substance Y00001: C4 binding Y variant from Ylib001Naive.I, SEQ ID NO:1 (LAEAKEAAIAELDSKGINEAIISKIERAESVEEVEYWKEEILAQLP; Engineered C4 binding Y variant) : ____
61 °C

Can you share its Tm? I mean this substance: Y00006: C4 binding Y variant from Ylib001Naive.I, SEQ ID NO:6 (LAEAKEAAIAELDSYGVVANLKKKIEIAKSVEQVEFWKEEILAQLP; Engineered C4 binding Y variant)
49 °C

Recorded Tm for Y00032: insulin binding Y variant from Ylib001Naive.I, SEQ ID NO:90 (LAEAKEAAIAELDSKGVGAYQKSFIELAKSVEHVELLKEAILADLP; Engineered insulin binding Y variant) , please?
47 °C

---

Experiment: Circular dichroism spectroscopy analysis (CD spectra, variable temperature measurement, refolding)
Format: physicochemical
Settings: Table 9, mutation study 5; MGSSHHHHHHGSS-[Y#####]-A
Measured quantity: Tm (°C)
Number only, in °C; omit the unit.

• Y02686: C4 binding Y variant, Y00792 with K15Y, SEQ ID NO:41 (LAEAKEAAIAELDSYGVGADLIKKIQQASSVEGVQFWKQEILAQLPA; Engineered C4 binding Y variant) = 59
• Y02710: insulin binding Y variant, Y00358 with K15Y, SEQ ID NO:150 (LAEAKEAAIAELDSYGVGAAKIKWIQDAKSVETVQFLKQAILAELPA; Engineered insulin binding Y variant) = 61

Now examine the next entry.
Endpoint output: Tm of Y02715: insulin binding Y variant, Y00358 with K15Y Q26E, SEQ ID NO:155 (LAEAKEAAIAELDSYGVGAAKIKWIEDAKSVETVQFLKQAILAELPA; Engineered insulin binding Y variant) . Value?
61
